# TESTED_ON: T1, human B7-H3 (4Ig-B7-H3 variant) (Homo sapiens, UniProt Q5ZPR3)
# T1 construct: His tag (6xHis) (C)
# T1 sequence (Q5ZPR3 with tags, fused parts or gaps): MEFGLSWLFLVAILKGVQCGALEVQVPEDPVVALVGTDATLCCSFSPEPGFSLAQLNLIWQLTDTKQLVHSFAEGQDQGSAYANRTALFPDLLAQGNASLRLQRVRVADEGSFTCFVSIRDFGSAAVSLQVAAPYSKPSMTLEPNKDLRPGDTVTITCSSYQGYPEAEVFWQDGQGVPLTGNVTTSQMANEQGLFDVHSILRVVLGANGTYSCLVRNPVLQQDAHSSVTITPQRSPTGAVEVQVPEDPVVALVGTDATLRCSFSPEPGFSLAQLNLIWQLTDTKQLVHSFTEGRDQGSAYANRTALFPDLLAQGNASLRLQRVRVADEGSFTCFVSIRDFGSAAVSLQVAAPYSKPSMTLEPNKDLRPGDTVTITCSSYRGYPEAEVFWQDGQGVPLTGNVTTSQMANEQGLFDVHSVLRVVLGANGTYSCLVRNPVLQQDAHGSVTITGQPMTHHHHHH
# TEST_DETAILS: Biacore T200 SPR binding kinetics, mAb capture, soluble ECD of human B7-H3
# CONDITIONS_USED: 1:1 binding model
Parameter: kd (1/s) huB7-H3. Scope: all listed entries.
I only need the number, in s⁻¹, no unit after it.

Check out these entries, answers already filled in.
# MOLECULE, UNIT_NAME, kd (1/s) huB7-H3
measured = [
    ("Ab17: mouse hybridoma derived anti-B7-H3 monoclonal antibodies (mAbs) (antibody, V domains shown) VH: EVKLVESGGGLVQPGGSLKLSCAASGFTFSSYIMSWVRQTPEKRLEWVASIVSSNITYYPDSMKGRFTISRDNARNILYLQMSSLKSEDTAMYYCARSGTRAWFAYWGQGTLVTVSA VL: DIVLTQSPASLAVSLGQRATISCRASKSVSTSAYSYMHWYQQKPGQPPKLLIYLASNLESGVPARFSGSGSGTDFTLNIHPVEEEDAATYYCQHSRELPYTFGGGTKLEIK", "s⁻¹", "1.9e-05"),
    ("Ab12: murine anti-B7-H3 mAbs; mouse hybridoma derived (antibody, V domains shown) VH: EVQLVESGGGLVKPGGSLKLSCAASGFTFSSYAMSWVRQTPEKRLEWVATISSGTNYTYYPDSVKGRFTISRDNAKNTLYLQMTSLRSEDTAMYYCARQGRYSWIAYWGQGTLVTVSA VL: DIVLTQSPASLAVSLGQRATISCRASKSVSTSDYSYMHWNQQKPGQPPKLLIYLASNLESGVPARFSGSGSGTDFTLNIHPVEEEDAATYYCQHSRELLTFGAGTKLELK", "s⁻¹", 0.00025),
]

Qu. Which value of kd (1/s) huB7-H3 has been reported for Ab10: mouse hybridoma derived anti-B7-H3 monoclonal antibodies (mAbs) (antibody, V domains shown) VH: DVQLQESGPGLVKPSQSLSLTCTVTGYSITSDYAWNWIRQFPGNRLEWMGHINYSGITNYNPSLKSRISITRDTSKNQFFLQLYSVTTEDTATYFCARRSLFYYYGSSLYAMDYWGQGTSVTVSS VL: DVVMTQSPFSLPVSLGDQASISCRSSQSLVHSNGNTYLHWYLQKPGQSPKLLIYKVSNRFSGVPDRFSGSGSGTDFTLKISRVEAEDLGVYFCSQSTHVPWTFGGGTKLEIK in the records?
Ans. 0.00019

Qu. Another molecule to check: Ab3: murine anti-B7-H3 mAbs; mouse hybridoma derived (antibody, V domains shown) VH: QVQLQQPGAELVKPGASVKLSCKASGYTFSSYWMHWVKQRPGQGLEWIGLIHPDSGSTNYNEMFKNKATLTVDRSSSTAYVQLSSLTSEDSAVYFCAGGGRLYFDYWGQGTTLTVSS VL: DVVMTQTPLSLPVSLGDQASISCRSSQSLVHSNGDTYLRWYLQKPGQSPKLLIYKVSNRFSGVPDRFSGSGSGTDFTLKITRVEAEDLGVYFCSQSTHVPYTFGGGTKLEIK
Ans. 0.01
